Reference for the values: ChEMBL document CHEMBL3046342

Test system: Salmonella typhimurium
Test: Antibacterial activity against Salmonella enterica subsp. enterica serovar Typhimurium ATCC 13311 assessed as growth inhibition at 10 to 100 ug/uL after 18 hr by disk diffusion method
Assay type: functional
measure.name: inhibition zone (IZ)

INSERT INTO results (molecule, measure_name, reported_result) VALUES
  ('CC(C)CCC[C@@H](C)[C@H]1CC[C@H]2[C@@H]3C/C(=N\NC(=S)NC4CCCCC4)C4CCCC[C@]4(C)[C@H]3CC[C@]12C (stereo partly drawn)', 'inhibition zone (IZ)', '10.6 mm'),
  ('CC(C)CCC[C@@H](C)[C@H]1CC[C@H]2[C@@H]3C/C(=N\N=C4/SCC(=O)N4C4CCCCC4)C4CCCC[C@]4(C)[C@H]3CC[C@]12C (stereo partly drawn)', 'inhibition zone (IZ)', '13.2 mm'),
  ('CC(C)CCC[C@@H](C)[C@H]1CC[C@H]2[C@@H]3C/C(=N\NC(=S)NC4CCCCC4)C4C[C@@H](Cl)CC[C@]4(C)[C@H]3CC[C@]12C (stereo partly drawn)', 'inhibition zone (IZ)', '11.5 mm');

----------
Tested on: Escherichia coli
Test: Antibacterial activity against Escherichia coli ATCC 49696 assessed as growth inhibition after 18 hr by microbroth dilution method
Assay type: functional
Details: ATCC 49696, 18 h
measure.name: MIC (µg/mL)

INSERT INTO assay_data (compound, assayed_target, reading_unit, reported_result) VALUES
  ('CC1(C)S[C@@H]2[C@H](NC(=O)[C@H](N)c3ccc(O)cc3)C(=O)N2[C@H]1C(=O)O', 'Escherichia coli', 'µg/mL', 32),
  ('CC(=O)O[C@H]1CC[C@@]2(C)C(C1)/C(=N/N=C1\SCC(=O)N1C1CCCCC1)C[C@H]1[C@@H]3CC[C@H]([C@H](C)CCCC(C)C)[C@@]3(C)CC[C@@H]12 (some centres undefined)', 'Escherichia coli', 'µg/mL', 32),
  ('CC(C)CCC[C@@H](C)[C@H]1CC[C@H]2[C@@H]3C/C(=N\N=C4/SCC(=O)N4C4CCCCC4)C4C[C@@H](Cl)CC[C@]4(C)[C@H]3CC[C@]12C (some centres undefined)', 'Escherichia coli', 'µg/mL', 32),
  ('CC(C)CCC[C@@H](C)[C@H]1CC[C@H]2[C@@H]3C/C(=N\N=C4/SCC(=O)N4C4CCCCC4)C4CCCC[C@]4(C)[C@H]3CC[C@]12C (some centres undefined)', 'Escherichia coli', 'µg/mL', 128);
